These measurements were taken from PubChem BioAssay AID640.

inhibition values, listed per item
biological target: Tyrosine-protein phosphatase non-receptor type 22 (Homo sapiens) (UniProt Q9Y2R2); experiment: blockers of human LYP enzyme activity – biochemical, DiFMUP fluorescence, 2 µM, primary screen (AID 640); conditions: recombinant LYP catalytic domain, at 2 µM, hits give high values;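 further: 0% = DMSO with enzyme and 100% = enzyme fully blocked by orthovanadate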
Sequence (Q9Y2R2 whole entry, looked up, the tested form may be a part): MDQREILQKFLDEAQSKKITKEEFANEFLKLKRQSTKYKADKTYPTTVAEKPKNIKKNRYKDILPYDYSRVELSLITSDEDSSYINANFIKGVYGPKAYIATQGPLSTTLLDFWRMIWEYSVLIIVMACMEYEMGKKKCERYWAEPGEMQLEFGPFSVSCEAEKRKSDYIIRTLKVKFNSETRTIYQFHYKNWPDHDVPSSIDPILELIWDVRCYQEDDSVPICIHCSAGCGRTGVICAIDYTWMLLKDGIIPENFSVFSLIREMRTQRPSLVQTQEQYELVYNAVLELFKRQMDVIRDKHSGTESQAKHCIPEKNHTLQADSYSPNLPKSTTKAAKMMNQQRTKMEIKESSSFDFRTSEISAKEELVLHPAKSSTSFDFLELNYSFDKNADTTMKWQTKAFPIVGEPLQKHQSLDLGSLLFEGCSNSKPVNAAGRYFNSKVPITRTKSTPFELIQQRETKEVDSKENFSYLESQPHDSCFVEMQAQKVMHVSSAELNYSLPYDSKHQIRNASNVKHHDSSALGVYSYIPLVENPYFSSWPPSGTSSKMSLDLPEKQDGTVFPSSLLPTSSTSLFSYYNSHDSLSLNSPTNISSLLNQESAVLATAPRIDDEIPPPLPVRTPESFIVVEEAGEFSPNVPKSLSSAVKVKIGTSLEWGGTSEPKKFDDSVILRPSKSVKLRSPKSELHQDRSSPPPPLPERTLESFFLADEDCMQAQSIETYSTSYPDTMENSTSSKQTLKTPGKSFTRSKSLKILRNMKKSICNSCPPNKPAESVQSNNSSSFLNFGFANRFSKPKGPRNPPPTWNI
Hit rate of the full screen: of about 96,000 compounds, about 200 (0.21%) were called active. This is one part of a sample in which actives are shown more often than they occur.
metric: inhibition

Cc1ccc(-c2nc3ccccc3[nH]2)cc1N; 0.9% (inactive)
COc1cccc(NC(=O)CN2CCN(c3nc(-c4cccc(OC)c4)cs3)CC2)c1; 8.7% (inactive)
CCNC(=S)N1CCN(C(=O)c2ccco2)CC1; -9.6% (inactive)
COc1ccc(CCN2C(=O)C3CC=C(C)CC3C2=O)cc1OC (configuration not stated); 3.1% (inactive)
CCSc1nnc(NC(=O)Cc2ccccc2OC)s1; 15.4% (inactive)
CCSc1nnc(NC(=O)c2ccc(C)cc2)s1; -2.4% (inactive)
O=C(Nc1ccon1)c1sc2ccccc2c1Cl; -12.9% (inactive)
CCOC(=O)c1nc(Nc2ccc(C(=O)OC)cc2)c2ccccc2n1; 1.7% (inactive)
COC(=O)CSc1nnc(-c2cccnc2)o1; 4.2% (inactive)
COc1cc(OC)cc(-c2cc3nc(C4CCN(C(=O)OC(C)(C)C)CC4)cc(=O)n3[nH]2)c1; -4.9% (inactive)
O=C(CSc1nc2ccccc2o1)N1c2ccccc2Sc2ccc(Cl)cc21; 4.8% (inactive)
COc1ccc(OCC(=O)NN2Cc3ccccc3C2=N)cc1; 8.2% (inactive)

* * *

inhibition values, listed per item
target: Tyrosine-protein phosphatase non-receptor type 22 (Homo sapiens) (UniProt Q9Y2R2); assay: blockers of human LYP enzyme activity – biochemical, DiFMUP fluorescence, 2 µM, primary screen (AID 640); conditions: recombinant LYP catalytic domain, at 2 µM, hits give high values;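 further: 0% = DMSO with enzyme and 100% = enzyme fully blocked by orthovanadate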
Among all 96,000 compounds or so, about 200 (0.21%) were called active. The entries come from a sample that favours actives as a whole.
metric: inhibition (%)

O=C(CN1CCN(S(=O)(=O)c2ccc(Cl)s2)CC1)NCc1ccc(Cl)cc1; -18.4
CCOC(=O)C1=C(C)NC(SC)=NC1c1ccccc1 (stereo not given); -0.6
Cc1noc(COc2ccccc2OCc2onc(C)c2Cl)c1Cl; -6.2
COc1ccc(Oc2c(Cl)cnn(-c3ccccc3)c2=O)cc1; -10.1
Cc1ccc(NC(=O)CSCC(=O)N2CCOCC2)cc1; -3.1
O=C(CCl)NNc1cccc(Cl)n1; 2.9
Nc1c(-c2cccc(Cl)c2)cnn1-c1cccc([N+](=O)[O-])c1; -9.9
CC(C)OC(=O)CN1C(=O)C(=O)c2ccccc21; -2.8
COc1ccc(S(=O)(=O)NCc2ccc(C(=O)N(C)Cc3ccco3)cc2)cc1; -6
CCOC(=O)c1ccc(COC(=O)CCc2nc(-c3ccccc3)c(-c3ccccc3)o2)cc1; 10.3

* * *

target: Tyrosine-protein phosphatase non-receptor type 22 (Homo sapiens); test: blockers of human LYP enzyme activity – biochemical, DiFMUP fluorescence, 2 µM, primary screen (AID 640); conditions: recombinant LYP catalytic domain, at 2 µM, hits give high values;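 further: 0% = DMSO with enzyme and 100% = enzyme fully blocked by orthovanadate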
Among all 96,000 compounds or so, about 200 (0.21%) were called active. This excerpt belongs to a sample that is enriched for actives.
inhibition values, listed per item
metric: inhibition (%)

O=[N+]([O-])c1ccc(N2CCN(S(=O)(=O)c3ccc4ccccc4c3)CC2)cc1NCc1ccco1; 4.1
Fc1ccccc1COc1ccccc1CNCc1ccncc1; 4.4
O=C(c1cccc(F)c1)N1CCN(c2ccc([N+](=O)[O-])c(N3CCCCC3)c2)CC1; 8.1
CCC(=O)Oc1cccc(C(=O)Nc2ccc(-c3nnc(-c4ccco4)o3)cc2)c1; 8.1
CCn1nccc1C(=O)Nc1ccc(Cl)c(Cl)c1; -0.3
Cc1cnc(NC(=O)C2CCCC2)s1; -5.5

* * *

biological target: Tyrosine-protein phosphatase non-receptor type 22 (Homo sapiens) (UniProt Q9Y2R2); assay: blockers of human LYP enzyme activity – biochemical, DiFMUP fluorescence, 2 µM, primary screen (AID 640); conditions: recombinant LYP catalytic domain, at 2 µM;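 further: 0% = DMSO with enzyme and 100% = enzyme fully blocked by orthovanadate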
Out of some 96,000 compounds screened, about 200 (0.21%) were called active.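 The calls were made as follows: active = inhibition at 2 µM at or above a set limit, the screen mean plus 3 SD (cut at about 24% in these data); inactive = the rest.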 This excerpt belongs to a sample that is enriched for actives.
Possible outcomes: active, inactive

CSc1ccc(/C=N\NC(=O)COc2ccc(Cl)cc2Br)cc1; active
CS(=O)(=O)N(CC(=O)Nc1ccc(Cl)c(Cl)c1)C1CCCCC1; inactive
CCC(=O)NCCc1nc2ccccc2n1CC; inactive
COc1ccc(Nc2cc(=O)oc3ccccc23)cc1; inactive
CN(C)c1nc(N)nc(CSc2ccccn2)n1; inactive
CCN1CCN(C(=O)/C=C\C(=O)O)CC1; inactive
CCOC(=O)CN(Cc1ccc(OC)c(OC)c1)S(=O)(=O)c1ccc(OC)cc1; inactive

* * *

biological target: Tyrosine-protein phosphatase non-receptor type 22 (Homo sapiens); assay: blockers of human LYP enzyme activity – biochemical, DiFMUP fluorescence, 2 µM, primary screen (AID 640); conditions: recombinant LYP catalytic domain, at 2 µM, hits give high values;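 further: 0% = DMSO with enzyme and 100% = enzyme fully blocked by orthovanadate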
Hit rate of the full screen: of about 96,000 compounds, about 200 (0.21%) were called active. The sample as a whole holds a higher share of actives than the screen did.
metric: inhibition (%)

O=C(Nc1cccc(NC(=O)c2ccco2)c1)c1cnccn1; -8.1
CC(=O)NC1(c2cccc(F)c2)CCN(CC(=O)NC(C)C)CC1; -6.7
CC(=O)c1cnc(SCCN2C(=O)c3ccccc3C2=O)nc1C; -4.7
COCc1cc(C(C)=O)ccc1OC; 7.3
c1ccc2c(-c3nn4nnnc4c4ccccc34)cccc2c1; 11.7

* * *

target: Tyrosine-protein phosphatase non-receptor type 22 (Homo sapiens); test: blockers of human LYP enzyme activity – biochemical, DiFMUP fluorescence, 2 µM, primary screen (AID 640); settings: recombinant LYP catalytic domain, at 2 µM, hits give high values;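 further: 0% = DMSO with enzyme and 100% = enzyme fully blocked by orthovanadate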
The campaign covered roughly 96,000 compounds. About 200 (0.21%) were called active. The entries come from a sample that favours actives as a whole.
inhibition values, listed per item
metric: inhibition (%)

COC(=O)c1ccc(C2C(Oc3ccccc3C)C(=O)N2CCc2ccc(OC)c(OC)c2)cc1 (centres undefined); -11.5
Cc1cc(/C=C2/SC(=O)N(CC(=O)OC(C)C)C2=O)c(C)n1C; 9.2
c1ccc(-c2noc(-c3cccs3)n2)nc1; 7.6
Cc1cc(-n2nc(C)cc2C)n2nc(C)c(-c3ccccc3)c2n1; -2.6
O=C(Oc1ccccc1)Oc1ccc2c(c1)oc(=O)c1ccccc12; -1.7
Cc1sc2nc(SCC(N)=O)n(C)c(=O)c2c1C; -1
CCOC(=O)c1c(NC(C)=O)sc2c(O)c(Br)ccc12; 7.9
COC(=O)C1=C(Nc2ccc(C)cc2)C=C(C)C(C(=O)OC)C1c1ccc(F)cc1 (centres undefined); -3.3
Cc1cc(C)c(NC(=O)CN2CCOCCOCCOCCOCC2)c(C)c1; 3.4
CCOC(=O)c1[nH]c(C)c(C(=O)OCC(=O)N2c3ccccc3CC2C)c1C (centres undefined); 2.3
O=C(/C=C/Sc1ncn[nH]1)c1ccc(Cl)cc1; -5.9
N#Cc1ccccc1CN1C(=O)S/C(=C/c2cccn2-c2cccc(C(=O)O)c2)C1=O; 32.6
Cc1cccc(-n2ncc(C#N)c2-n2cccc2)c1; -13.4
CC(c1ccco1)N(C(=O)Nc1ccccc1)C1CCCCC1 (centres undefined); -2
